FYI, the data here is from the supplement of paper PMC9233669.

test system: biotinyl-Met-oxazolone; assay: self-aminoacylation, catalytic enhancement (BMO) (fold over background); higher = more active; k-Seq, kA / k0A0; sequences stand for … in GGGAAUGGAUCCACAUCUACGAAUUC…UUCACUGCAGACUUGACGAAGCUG
Variants at the floor of the assay were thinned out.
readout kind: self-aminoacylation

[[record]]
residue_sequence = "AUUCACCCAGGUCAUCUGGUG [Fam2.2 aminoacylation ribozyme variant]"
value = 3.99

[[record]]
residue_sequence = "AGUACCCUUGUCAUCGAGUGA [Fam2.1 aminoacylation ribozyme variant]"
value = 5.76

[[record]]
residue_sequence = "CCACAUUUCAAGCGAUCGGUC [Fam1B.1 aminoacylation ribozyme variant]"
value = 1.31

[[record]]
residue_sequence = "AUUCACCUAGGUCAUCUGCUG [Fam2.2 aminoacylation ribozyme variant]"
value = 0.724

[[record]]
residue_sequence = "AUUACGCUGGUCAUCGGGUGA [Fam2.1 aminoacylation ribozyme variant]"
value = 8.98

[[record]]
residue_sequence = "CUACUUCCAACAAUCGGGCUG [Fam1A.1 aminoacylation ribozyme variant]"
value = 2.11

[[record]]
residue_sequence = "AUUACCCUCGUCAGCGAGUGA [Fam2.1 aminoacylation ribozyme variant]"
value = 3.5

[[record]]
residue_sequence = "CUACUUAAAACUAUCGGUCUG [Fam1A.1 aminoacylation ribozyme variant]"
value = 0.922

[[record]]
residue_sequence = "AAGUUUGAUCAUAGUCGCAAG [Fam3.1 aminoacylation ribozyme variant]"
value = 1.55

[[record]]
residue_sequence = "AUUCACCUAGGUCAUCGUAUG [Fam2.2 aminoacylation ribozyme variant]"
value = 0.503

[[record]]
residue_sequence = "UCACACUUGAAGCAAUCGGUC [Fam1B.1 aminoacylation ribozyme variant]"
value = 0.762

[[record]]
residue_sequence = "CCACACUUAAAGCACUCGGUC [Fam1B.1 aminoacylation ribozyme variant]"
value = 0.856

[[record]]
residue_sequence = "CUUGACCUAGGUCAUCGGGUG [Fam2.2 aminoacylation ribozyme variant]"
value = 3.39

[[record]]
residue_sequence = "CUACUUUAAACAAUCGGUUUG [Fam1A.1 aminoacylation ribozyme variant]"
value = 0.786

[[record]]
residue_sequence = "AUGACCCUGGUCAGCGAGUGA [Fam2.1 aminoacylation ribozyme variant]"
value = 4.85

[[record]]
residue_sequence = "GUUACCCUGGUCAUCGAGUGA [Fam2.1 aminoacylation ribozyme variant]"
value = 99

[[record]]
residue_sequence = "AUCACCCUGGUCAUCCAGUGA [Fam2.1 aminoacylation ribozyme variant]"
value = 6.56

[[record]]
residue_sequence = "AAUCACCUACGUCAUCGGGUG [Fam2.2 aminoacylation ribozyme variant]"
value = 6.56

[[record]]
residue_sequence = "AUUCACCUAGUUCAUCAGGUG [Fam2.2 aminoacylation ribozyme variant]"
value = 0.796


* * *

tested on: biotinyl-Leu-oxazolone; assay: self-aminoacylation, catalytic enhancement (BLO) (fold over background); higher = more active; k-Seq, kA / k0A0; sequences stand for … in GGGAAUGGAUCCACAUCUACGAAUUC…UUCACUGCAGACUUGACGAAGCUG
Variants at the floor of the assay were thinned out.
readout kind: self-aminoacylation

[[record]]
residue_sequence = "CUACUCCAAACAAUCGGCCUG [Fam1A.1 aminoacylation ribozyme variant]"
test_system = "biotinyl-Leu-oxazolone"
value = 2.07

[[record]]
residue_sequence = "CGACUUCAAACAAUCGGUGUG [Fam1A.1 aminoacylation ribozyme variant]"
test_system = "biotinyl-Leu-oxazolone"
value = 2.54

[[record]]
residue_sequence = "AUUACCCUAGUCAUCGCGUGA [Fam2.1 aminoacylation ribozyme variant]"
test_system = "biotinyl-Leu-oxazolone"
value = 9.91

[[record]]
residue_sequence = "AAGUUAGCUAAUAGUCGGAAG [Fam3.1 aminoacylation ribozyme variant]"
test_system = "biotinyl-Leu-oxazolone"
value = 1.28

[[record]]
residue_sequence = "AUUAACCUAGGUCAUCGGGUG [Fam2.2 aminoacylation ribozyme variant]"
test_system = "biotinyl-Leu-oxazolone"
value = 46.3

[[record]]
residue_sequence = "CUACUUCUAACAAUCGCUCUG [Fam1A.1 aminoacylation ribozyme variant]"
test_system = "biotinyl-Leu-oxazolone"
value = 0.602

[[record]]
residue_sequence = "CCACACUUCAAGCCAUCGUUC [Fam1B.1 aminoacylation ribozyme variant]"
test_system = "biotinyl-Leu-oxazolone"
value = 1.24

[[record]]
residue_sequence = "AUUCACCUAGAUCGUCGGGUG [Fam2.2 aminoacylation ribozyme variant]"
test_system = "biotinyl-Leu-oxazolone"
value = 1.3

[[record]]
residue_sequence = "AGUCACCUAGGUCAUCGCGUG [Fam2.2 aminoacylation ribozyme variant]"
test_system = "biotinyl-Leu-oxazolone"
value = 18.3

[[record]]
residue_sequence = "AUUUACCCAGGUCAUCGGGUG [Fam2.2 aminoacylation ribozyme variant]"
test_system = "biotinyl-Leu-oxazolone"
value = 6.46

[[record]]
residue_sequence = "CUUCACCUAGGUCAUUGGGUG [Fam2.2 aminoacylation ribozyme variant]"
test_system = "biotinyl-Leu-oxazolone"
value = 2.25

[[record]]
residue_sequence = "CUACUUCAAGCUAUCGGUCUG [Fam1A.1 aminoacylation ribozyme variant]"
test_system = "biotinyl-Leu-oxazolone"
value = 0.689

[[record]]
residue_sequence = "CUACUUCCAACAAUUGGUCUG [Fam1A.1 aminoacylation ribozyme variant]"
test_system = "biotinyl-Leu-oxazolone"
value = 0.776

[[record]]
residue_sequence = "CCACACGUGAAGCAAUCGGUC [Fam1B.1 aminoacylation ribozyme variant]"
test_system = "biotinyl-Leu-oxazolone"
value = 0.721

[[record]]
residue_sequence = "AUUCACCUAGGUCAUCGUAUG [Fam2.2 aminoacylation ribozyme variant]"
test_system = "biotinyl-Leu-oxazolone"
value = 0.553

[[record]]
residue_sequence = "CCACACUUCAAUCAGUCGGUC [Fam1B.1 aminoacylation ribozyme variant]"
test_system = "biotinyl-Leu-oxazolone"
value = 0.723

[[record]]
residue_sequence = "CUACUUUAAACAAUCGGUUUG [Fam1A.1 aminoacylation ribozyme variant]"
test_system = "biotinyl-Leu-oxazolone"
value = 0.776

[[record]]
residue_sequence = "CCGCACUCCAAGCAAUCGGUC [Fam1B.1 aminoacylation ribozyme variant]"
test_system = "biotinyl-Leu-oxazolone"
value = 0.931

[[record]]
residue_sequence = "AUUACCCUGGUCAUCGGUUGA [Fam2.1 aminoacylation ribozyme variant]"
test_system = "biotinyl-Leu-oxazolone"
value = 1.94

[[record]]
residue_sequence = "AGGCUUGCUAAUAGUCGCAAG [Fam3.1 aminoacylation ribozyme variant]"
test_system = "biotinyl-Leu-oxazolone"
value = 2.31

[[record]]
residue_sequence = "UUUCACGUAGGUCAUCGGGUG [Fam2.2 aminoacylation ribozyme variant]"
test_system = "biotinyl-Leu-oxazolone"
value = 3.88

[[record]]
residue_sequence = "CCACAUUUCAAGCGAUCGGUC [Fam1B.1 aminoacylation ribozyme variant]"
test_system = "biotinyl-Leu-oxazolone"
value = 1.62

[[record]]
residue_sequence = "AUUCUUCUAGGUCAUCGGGUG [Fam2.2 aminoacylation ribozyme variant]"
test_system = "biotinyl-Leu-oxazolone"
value = 9.07

[[record]]
residue_sequence = "GUUCACCUAGGUCAUCGGUUG [Fam2.2 aminoacylation ribozyme variant]"
test_system = "biotinyl-Leu-oxazolone"
value = 1.38

[[record]]
residue_sequence = "AUUACCCUGGUUAACGAGUGA [Fam2.1 aminoacylation ribozyme variant]"
test_system = "biotinyl-Leu-oxazolone"
value = 14.4

[[record]]
residue_sequence = "AUUACCCUGGUCAACAAGUGA [Fam2.1 aminoacylation ribozyme variant]"
test_system = "biotinyl-Leu-oxazolone"
value = 6.6

[[record]]
residue_sequence = "CCACUCUUCAAGCCAUCGGUC [Fam1B.1 aminoacylation ribozyme variant]"
test_system = "biotinyl-Leu-oxazolone"
value = 1.15

[[record]]
residue_sequence = "AUUCACCUAGGACAUCCGGUG [Fam2.2 aminoacylation ribozyme variant]"
test_system = "biotinyl-Leu-oxazolone"
value = 6


* * *

system: biotinyl-Phe-oxazolone; experiment: self-aminoacylation, catalytic enhancement (BFO) (fold over background); higher = more active; k-Seq, kA / k0A0; sequences stand for … in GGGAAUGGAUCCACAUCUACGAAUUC…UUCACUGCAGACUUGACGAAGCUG
This sample holds only a part of the variants without activity.
Each entry falls into one class according to its self-aminoacylation; the ranges are group A: < 2; group B: ≥ 2 and < 40; group C: ≥ 40

[[record]]
residue_sequence = "CCAUACUUCCAGCAAUCGGUC [Fam1B.1 aminoacylation ribozyme variant]"
class_assignment = "group A"

[[record]]
residue_sequence = "AUUACCCUGGACAUUGAGUGA [Fam2.1 aminoacylation ribozyme variant]"
class_assignment = "group C"

[[record]]
residue_sequence = "AUUCCCCUAGGUUAUCGGGUG [Fam2.2 aminoacylation ribozyme variant]"
class_assignment = "group C"

[[record]]
residue_sequence = "AUUCACCAAGGUUAUCGGGUG [Fam2.2 aminoacylation ribozyme variant]"
class_assignment = "group C"

[[record]]
residue_sequence = "AUUCACAUAGAUCAUCGGGUG [Fam2.2 aminoacylation ribozyme variant]"
class_assignment = "group B"

[[record]]
residue_sequence = "AUUGACCUAGGUCACCGGGUG [Fam2.2 aminoacylation ribozyme variant]"
class_assignment = "group B"

[[record]]
residue_sequence = "CCACAUUUCACGCAAUCGGUC [Fam1B.1 aminoacylation ribozyme variant]"
class_assignment = "group B"

[[record]]
residue_sequence = "CCACUCUUCAAGCAAUCGGUG [Fam1B.1 aminoacylation ribozyme variant]"
class_assignment = "group B"

[[record]]
residue_sequence = "AUUACCCUUGACAUCGAGUGA [Fam2.1 aminoacylation ribozyme variant]"
class_assignment = "group C"

[[record]]
residue_sequence = "CCAAACUUCAAGCAAUCGGUU [Fam1B.1 aminoacylation ribozyme variant]"
class_assignment = "group B"

[[record]]
residue_sequence = "CCACACAUCCAGCAAUCGGUC [Fam1B.1 aminoacylation ribozyme variant]"
class_assignment = "group A"

[[record]]
residue_sequence = "CCAGACUUUAAGCAAUCGGUC [Fam1B.1 aminoacylation ribozyme variant]"
class_assignment = "group A"

[[record]]
residue_sequence = "CUACUUCAAAUAAUCGGACUG [Fam1A.1 aminoacylation ribozyme variant]"
class_assignment = "group B"

[[record]]
residue_sequence = "CUACUUCAAACAGUCGGACUG [Fam1A.1 aminoacylation ribozyme variant]"
class_assignment = "group A"

[[record]]
residue_sequence = "CUACUUCAAAUAAUCGAUCUG [Fam1A.1 aminoacylation ribozyme variant]"
class_assignment = "group A"

